- Measurement notes: Restrictive medium S. cerevisiae growth inhibition, OD615, pilot screen of yeast lifespan reduction project, restrictive growth control (AID 706);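 further: modified DeaD lifespan yeast strain shifted to restrictive glucose medium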
- Assay setup: OD615, 48 h, at 10 µM, active compounds read high
Catalogue of growth inhibition values
Property: growth inhibition (%)

# Molecule, Property, Readout number
measured = [
    ("CCCNC(=O)C1CC(=O)N(c2ccc(OCC(=O)Nc3cccc(C)c3C)cc2)C1 (stereo unspecified)", "growth inhibition", -14.8),
    ("CCOc1ccccc1Nc1cc(C)nc2nc(C)nn12", "growth inhibition", -9.62),
    ("COC(=O)Cn1c(CN2CCN(c3ccc(F)cc3)CC2)nc2c1c(=O)n(C)c(=O)n2C", "growth inhibition", -4.9),
    ("COc1cc(NC(=O)c2cc3c(=O)n(C)c4ccccc4c3n2C)cc(OC)c1OC", "growth inhibition", 7.94),
    ("CCCCc1ccc(Nc2ncnc3nc[nH]c23)cc1", "growth inhibition", 22.7),
    ("CCN(CC)S(=O)(=O)c1ccc(-c2nnc3sc4cccc(C)c4n23)cc1", "growth inhibition", -11.5),
    ("O=C(NCCN1C(=O)C2C3C=CC(C3)C2C1=O)NCc1ccccc1 (stereo unspecified)", "growth inhibition", 3.81),
    ("CCc1ccc2[nH]cc(C(=O)OCCOC)c(=O)c2c1", "growth inhibition", 0.075),
    ("CC1CCN(c2nc(-c3ccncc3)nc3ccccc23)CC1", "growth inhibition", -2.73),
    ("O=C(NCCCN1CCCCC1)c1ccc2c(=O)n(CCc3ccccc3)c(=O)[nH]c2c1", "growth inhibition", -6.43),
    ("COc1ccc(NC(=O)Nc2cccc3cccnc23)cc1", "growth inhibition", -0.385),
]
